Taken from PubChem BioAssay (NCATS).

assay: qHTS of pediatric cancer cell lines to identify multiple opportunities for drug repurposing: Primary screen for NB-EBc1 cells (AID 1347095); conditions: NB-EBc1 neuroblastoma viability, CellTiter-Glo luminescence, 48 h; series mostly up to 46 µM
Results filed as inconclusive are left out. The source made the active and inactive calls. Calls come from the whole dose curve; as a rule, active = well fitted cell-killing curve with a large enough effect; inconclusive = small, poorly fitted or top-dose-only effect; inactive = no such curve, though single readings can be large or run the other way.
Your answer must be one of the following: active, inactive

Recorded results for 6 molecules are shown here.
CNC(=O)Oc1cccc2ccccc12    inactive
CCN(CC)C(C)C(=O)c1ccccc1 (configuration not stated)    inactive
CC1=C2[C@H]3OC(=O)[C@@H](C)[C@@H]3CC[C@@]2(C)C=CC1=O    inactive
C=CC[C@]1(O)CC[C@H]2[C@@H]3CCC4=CC(=O)CCC4=C3C=C[C@@]21C    inactive
O=C(N[C@H]1N=C(c2ccccc2F)c2cccc3c2N(CC3)C1=O)c1cc2ccccc2[nH]1    inactive
CCC1(CC)C(=O)NC(=O)NC1=O    inactive

# next molecule below
[in] Write down the call the test reported for this molecule. Item: CC1N=C(N)OC1c1ccccc1 (configuration not stated)
[out] inactive
